- studyTarget: human leukocyte elastase (HLE) (Homo sapiens, UniProt P08246)
- Construct: purchased Calbiochem
- testName: Kinetic parameters of HLE inhibition (fluorogenic substrate, steady-state KI^ss and K5/KI)
- Assay type: biochemical
- conditionLabel: HLE (Calbiochem), 37° C., pH 7.4 phosphate buffer, 1% DMSO, 1% MeCN; read-out: K5 /KI (rate of formation of the HLE-inhibitor complex)
experimentalReadout: log10 of kinact/KI (log10 of the value in M⁻¹ s⁻¹)
Log10 applied to kinact/KI; unit prior to transform: M⁻¹ s⁻¹.

CO[C@H]1C(=O)N2C(C(=O)C(C)(C)C)=C(CSc3nnnn3C)C(C)(Sc3nnnn3C)S(=O)(=O)[C@H]12 (stereo partly drawn)
6.15

Incoming: If you can, please state the reported log10 of kinact/KI value of CO[C@H]1C(=O)N2C(C(=O)C(C)(C)C)=C(C)C(Cc3ccccc3)(Sc3nnnn3C)S(=O)(=O)[C@H]12 (stereo partly drawn) .
Outgoing: 5.04

Incoming: Which value of log10 of kinact/KI has been reported for CO[C@H]1C(=O)N2C(C(=O)C(C)(C)C)=C(C)C(Cc3ccc(C(=O)OC(c4ccccc4)c4ccccc4)cc3)(Sc3nnnn3C)S(=O)(=O)[C@H]12 (stereo partly drawn) in the records?
Outgoing: 4.89

Incoming: Value lookup for log10 of kinact/KI; key = C=CCOC(=O)c1ccc(CC2(Sc3nnnn3C)C(C)=C(C(=O)C(C)(C)C)N3C(=O)[C@H](OC)[C@H]3S2(=O)=O)cc1 (stereo partly drawn)
Outgoing: 5.75

Incoming: Which value of log10 of kinact/KI has been reported for CO[C@H]1C(=O)N2C(C(=O)N3CCCC3)=C(CSc3nc(=O)c(O)nn3C)CS(=O)(=O)[C@H]12 [Ref. 3, reference compound] in the records?
Outgoing: 3.18

Incoming: Using the record for CO[C@H]1C(=O)N2C(C(=O)C(C)(C)C)=C(C)C(C)(Sc3nc(=O)c(O)nn3C)S(=O)(=O)[C@H]12 (stereo partly drawn) , report its log10 of kinact/KI.
Outgoing: 4.57

----------
- studyTarget: human leukocyte elastase (HLE) (Homo sapiens)
- Construct: purchased Calbiochem
- testName: Kinetic parameters of HLE inhibition (fluorogenic substrate, steady-state KI^ss and K5/KI)
- Type: biochemical
- conditionLabel: HLE (Calbiochem), 37° C., pH 7.4 phosphate buffer, 1% DMSO, 1% MeCN; read-out: K5 /KI (rate of formation of the HLE-inhibitor complex)
# Lookup of reported kinact/KI keyed by entry
Please reply with the bare figure in M⁻¹ s⁻¹ and do not write the unit itself.

Here's what some known entries look like.
C=CCC1(Sc2nnnn2C)C(C)=C(C(=O)C(C)(C)C)N2C(=O)[C@H](OC)[C@H]2S1(=O)=O (stereo partly drawn) [Compound 7]
360000
CO[C@H]1C(=O)N2C(C(=O)C(C)(C)C)=C(C)C(Cc3ccccc3)(Sc3nc(=O)c(OCc4ccccc4)nn3C)S(=O)(=O)[C@H]12 (stereo partly drawn) [Compound 46]
160000
CO[C@H]1C(=O)N2C(C(=O)C(C)(C)C)=C(C)C(Cc3ccccc3)(Sc3nc(=O)c(O)nn3C)S(=O)(=O)[C@H]12 (stereo partly drawn) [Compound 18]
14000

Incoming: Given CO[C@H]1C(=O)N2C(C(=O)C(C)(C)C)=C(C)C(Cc3ccc([N+](=O)[O-])cc3)(Sc3nnnn3C)S(=O)(=O)[C@H]12 (stereo partly drawn) [Compound 6] , state its recorded kinact/KI.
Outgoing: 600000

Incoming: Looking for the measured kinact/KI of CO[C@H]1C(=O)N2C(C(=O)C(C)(C)C)=C(C)C(Cc3ccc(C(=O)O)cc3)(Sc3nnnn3C)S(=O)(=O)[C@H]12 (stereo partly drawn) [Compound 32] , can you help?
Outgoing: 200000

Incoming: Consider the compound CO[C@H]1C(=O)N2C(C(=O)C(C)(C)C)=C(C)C(C)(Sc3nc(=O)c(OC(c4ccccc4)c4ccccc4)nn3C)S(=O)(=O)[C@H]12 (stereo partly drawn) [Compound 11] and give its measured kinact/KI.
Outgoing: 1.3e+07

Incoming: Which kinact/KI value is on record for COc1nn(C)c(SC2(C)C(C)=C(C(=O)C(C)(C)C)N3C(=O)[C@H](OC)[C@H]3S2(=O)=O)nc1=O (stereo partly drawn) [Compound 15] ?
Outgoing: 1.4e+06

Incoming: Give the measured kinact/KI of C=CCC1(Sc2nc(=O)c(OC(c3ccccc3)c3ccccc3)nn2C)C(C)=C(C(=O)C(C)(C)C)N2C(=O)[C@H](OC)[C@H]2S1(=O)=O (stereo partly drawn) [Compound 24] .
Outgoing: 93000

Incoming: Quick check: kinact/KI of CO[C@H]1C(=O)N2C(C(=O)C(C)(C)C)=C(C)C(C)(Sc3nnnn3C)S(=O)(=O)[C@H]12 (stereo partly drawn) [Compound 5] ?
Outgoing: 570000

----------
- studyTarget: human leukocyte elastase (HLE) (Homo sapiens, UniProt P08246)
- Sequence (P08246 30-247 limits assumed): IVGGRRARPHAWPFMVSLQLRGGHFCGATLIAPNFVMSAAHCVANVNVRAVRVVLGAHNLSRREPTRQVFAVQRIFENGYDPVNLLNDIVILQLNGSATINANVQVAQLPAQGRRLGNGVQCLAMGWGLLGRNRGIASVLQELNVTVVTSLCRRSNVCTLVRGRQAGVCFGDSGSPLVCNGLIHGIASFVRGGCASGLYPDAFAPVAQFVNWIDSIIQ
- testName: Kinetic parameters of HLE inhibition (fluorogenic substrate, steady-state KI^ss and K5/KI)
- conditionLabel: HLE (Calbiochem), 37° C., pH 7.4 phosphate buffer, 1% DMSO, 1% MeCN; read-out: KI^ss (apparent dissociation constant of the HLE-inhibitor complex at steady state)
Label yes (1) when Ki is strictly below 3 nM; otherwise label no (0).

Worked examples, 10 compounds total:
CO[C@H]1C(=O)N2C(C(=O)C(C)(C)C)=C(CSc3nnnn3C)C(Sc3nnnn3C)S(=O)(=O)C12 (some centres unmarked) [Ref. 2, reference compound]
no (0)
CO[C@H]1C(=O)N2C(C(=O)C(C)(C)C)=C(C)C(Cc3ccc([N+](=O)[O-])cc3)(Sc3nnnn3C)S(=O)(=O)[C@H]12 (some centres unmarked)
yes (1)
CO[C@H]1C(=O)N2C(C(=O)C(C)(C)C)=C(C)C(C)(Sc3nc(=O)c(O)nn3C)S(=O)(=O)[C@H]12 (some centres unmarked)
no (0)
CO[C@H]1C(=O)N2C(C(=O)C(C)(C)C)=C(C)C(Cc3ccc(C(=O)O)cc3)(Sc3nnnn3C)S(=O)(=O)[C@H]12 (some centres unmarked)
no (0)
C=CCOC(=O)c1ccc(CC2(Sc3nnnn3C)C(C)=C(C(=O)C(C)(C)C)N3C(=O)[C@H](OC)[C@H]3S2(=O)=O)cc1 (some centres unmarked)
yes (1)
CO[C@H]1C(=O)N2C(C(=O)C(C)(C)C)=C(C)C(Cc3ccccc3)(Sc3nc(=O)c(O)nn3C)S(=O)(=O)[C@H]12 (some centres unmarked)
no (0)
CO[C@H]1C(=O)N2C(C(=O)C(C)(C)C)=C(C)C(Cc3ccccc3)(Sc3nc(=O)c(OCc4ccccc4)nn3C)S(=O)(=O)[C@H]12 (some centres unmarked)
no (0)
CO[C@H]1C(=O)N2C(C(=O)C(C)(C)C)=C(C)C(C)(Sc3nnnn3C)S(=O)(=O)[C@H]12 (some centres unmarked)
yes (1)
CO[C@H]1C(=O)N2C(C(=O)C(C)(C)C)=C(C)C(Cc3ccccc3)(Sc3nnnn3C)S(=O)(=O)[C@H]12 (some centres unmarked)
no (0)
C=CCC1(Sc2nc(=O)c(OC(c3ccccc3)c3ccccc3)nn2C)C(C)=C(C(=O)C(C)(C)C)N2C(=O)[C@H](OC)[C@H]2S1(=O)=O (some centres unmarked)
no (0)

Incoming: Input CO[C@H]1C(=O)N2C(C(=O)C(C)(C)C)=C(C)C(Cc3ccc(C(=O)OC(c4ccccc4)c4ccccc4)cc3)(Sc3nnnn3C)S(=O)(=O)[C@H]12 (some centres unmarked) ; condition: Ki strictly below 3 nM. Does it hold?
Outgoing: yes (1)

Incoming: Problem: For the compound CO[C@H]1C(=O)N2C(C(=O)C(C)(C)C)=C(C)C(C)(Sc3nc(=O)c(OC(c4ccccc4)c4ccccc4)nn3C)S(=O)(=O)[C@H]12 (some centres unmarked) , is Ki under 3 nM?
Outgoing: yes (1)
